Listing: pKd of selected binders
molecular target: PfHsp70‐x C‐terminal truncated version with a missing EEVN motif (Plasmodium falciparum); experiment: SPR; PfHsp70‐x or PfHsp70‐xT immobilised on ProteOn GLC chips, peptides as analytes at 1.25-20 nM, 25°C, PBS‐Tween pH 7.4, no nucleotide
Hey, just a heads up that pKd is the negative log base 10 of the concentration in molar.

Consider the reported pKd for these binders:
>  <Binder>
NRLLTG [peptide NRLLTG]

>  <pKd>
6.55

$$$$
>  <Binder>
ANNNMYRR [peptide ANNNMYRR]

>  <pKd>
3.20

$$$$
>  <Binder>
ALLLMYRR [peptide ALLLMYRR]

>  <pKd>
3.27

$$$$

Read the next record carefully.
// query Recorded pKd of NRNNTG [peptide NRNNTG] , please.
// result 8.10
